assay: Toxicity liver stage against HepG2, at 10uM; assay type: cell-based; design: test concentration 10 uM, cell line HepG2-A16-CD81EGFP; conditions: human, HepG2-A16-CD81EGFP cells; read-out: INHIBITION
Overview of recorded cytotoxicity at 10 µM for various compounds
Record the result as a number with its unit.

[
  {
    "COMPOUND": "O=S1(=O)NC2(CCCN(Cc3ccc(F)cc3)C2)COc2ccccc21 (stereo unspecified)",
    "ASSAY METRIC": "cytotoxicity at 10 µM",
    "RESULT": "7.63%"
  }
]

[ask] # cytotoxicity at 10 µM lookup, item CCCOCC(=O)N1CCc2nc(NC)nc(C(=O)N3CCCC3)c2C1
[reply] -109%

[ask] Tell me the measured cytotoxicity at 10 µM of CNC(=O)[C@H]1C[C@@H]2CN(C(=O)c3ccc(C)nc3)C[C@@H]2N1C , please.
[reply] -107%

[ask] Request the reported cytotoxicity at 10 µM associated with O=C(NC1CCN(Cc2cccc3c2OCCO3)CC1)c1cccs1
[reply] -4.71%

[ask] I have this compound here, Fc1ccccc1C1(CNC2CCOC3(CCOCC3)C2)CCCC1 (stereo unspecified) , and I need its recorded cytotoxicity at 10 µM.
[reply] -1.53%

[ask] Record request: cytotoxicity at 10 µM value, item Cc1nc(-c2ccco2)ccc1C(=O)N1CCn2c(C)nnc2C1
[reply] -5.83%

Source of measurements: ChEMBL document CHEMBL4513216
